# Test system: astro (control astrocytes)
# ASSAY_NOTES: Drug repurposing screens with cells derived from glioblastoma tumor samples (AID 1345199); also: nearly all actives have a fitted effect of over 40% in size
# ASSAY_CONDITIONS: viability, ATP luminescence, 48 h; series mostly up to 45.9 µM
Inconclusive results are not listed. Calls of active or inactive are those of the source. Calls follow the shape of the dose curve; as a rule, active = well fitted inhibition curve with a large enough effect; inconclusive = small, poorly fitted or top-dose-only effect; inactive = flat fitted curve, though single readings scatter.
Hi! Could you answer with just one of these? active, inactive

Observe how each entry below is paired with its result.
CCC(C)(Oc1ccc(C2(c3ccc(OC(C)(CC)C(=O)O)cc3)CCCCC2)cc1)C(=O)O (configuration not stated); inactive
Nc1cc(C(Cl)=C(Cl)Cl)c(S(N)(=O)=O)cc1S(N)(=O)=O; inactive
CCCCCCCCCCCCCCCCCCCCCCO; inactive
Cc1c(OCC(F)(F)F)ccnc1CS(=O)c1nc2ccccc2[nH]1 (configuration not stated); inactive
CC1=C(C)C(=O)C(C(CCCCCC(=O)O)c2ccccc2)=C(C)C1=O (configuration not stated); inactive

// switching to the query compound
### Prompt What is the recorded call for this compound in the test? CC(C)c1ccc2oc3nc(N)c(C(=O)O)cc3c(=O)c2c1
### Response active

###

# ASSAY_NOTES: qHTS of pediatric cancer cell lines to identify multiple opportunities for drug repurposing: Primary screen for Rh18 cells (AID 1347102); also: nearly all actives have a fitted effect of over 65% in size
# ASSAY_CONDITIONS: Rh18 rhabdomyosarcoma viability, CellTiter-Glo luminescence, 48 h; series mostly up to 46 µM
Inconclusive results are not listed. Activity calls are given as the source filed them. Calls follow the shape of the dose curve; as a rule, active = well fitted cell-killing curve with a large enough effect; inconclusive = small, poorly fitted or top-dose-only effect; inactive = flat fitted curve, though single readings scatter. Non-standard residues stand in square brackets, D forms with d. Residues, ends and D or L forms follow the SMILES beside them. *: point of attachment. Sta = CC(C)C[C@H](N)[C@@H](O)CC(=O)O; Isovaleryl = CC(C)CC(=O)*
Hi! Could you answer with just one of these? true (1) (active), false (0) (inactive)

Nc1cccc2c1CN(C1CCC(=O)NC1=O)C2=O (configuration not stated); false (0)

### Prompt What is the recorded call for this compound in the test? O=C1c2c(O)cc(O)cc2OC(c2ccc(O)c(O)c2)C1O (configuration not stated)
### Response false (0)

### Prompt What is the recorded call for this compound in the test? O=C1NC(=O)C(c2ccccc2[N+](=O)[O-])=C1Nc1ccc(O)c(Cl)c1
### Response false (0)

### Prompt What is the recorded call for this compound in the test? O=c1c(O)c(-c2ccc(O)cc2O)oc2cc(O)cc(O)c12
### Response false (0)

### Prompt What is the recorded call for this compound in the test? C[C@@H](N)C1CCC(C(=O)Nc2ccncc2)CC1 (some centres not stated)
### Response false (0)

### Prompt What is the recorded call for this compound in the test? O=C(NCCO[N+](=O)[O-])c1cccnc1
### Response false (0)

### Prompt What is the recorded call for this compound in the test? COc1cc(C(C)=O)ccc1OCCCN1CCC(c2noc3cc(F)ccc23)CC1
### Response false (0)

### Prompt What is the recorded call for this compound in the test? Nc1cc(C(Cl)=C(Cl)Cl)c(S(N)(=O)=O)cc1S(N)(=O)=O
### Response false (0)

### Prompt What is the recorded call for this compound in the test? CC(C)(S)[C@@H](N)C(=O)O
### Response false (0)

### Prompt What is the recorded call for this compound in the test? CN(C)[C@@H](CCOc1cccc2ccccc12)c1ccccc1
### Response false (0)

### Prompt What is the recorded call for this compound in the test? CC1(C)NC(=O)N(c2ccc([N+](=O)[O-])c(C(F)(F)F)c2)C1=O
### Response false (0)

### Prompt What is the recorded call for this compound in the test? NC(=NCc1ccccc1)NC(=O)c1nc(Cl)c(N)nc1N
### Response false (0)

### Prompt What is the recorded call for this compound in the test? Cc1cc(O)c2c(c1)C(=O)c1cc(O)cc(O)c1C2=O
### Response false (0)

### Prompt What is the recorded call for this compound in the test? NS(=O)(=O)c1cc(C(=O)O)c(NCc2ccco2)cc1Cl
### Response false (0)

### Prompt What is the recorded call for this compound in the test? CCCCCCCCCCCCCCCCCCCCCCO
### Response false (0)

### Prompt What is the recorded call for this compound in the test? O=C(CS(=O)Cc1ccco1)NCC=CCOc1cc(CN2CCCCC2)ccn1 (configuration not stated)
### Response false (0)

### Prompt What is the recorded call for this compound in the test? CN(c1nccc(=O)[nH]1)C1CCN(c2nc3ccccc3n2Cc2ccc(F)cc2)CC1
### Response false (0)

### Prompt What is the recorded call for this compound in the test? COC(=O)C1=C(C)NC(C)=C(C(=O)OC(C)C)C1c1cccc2nonc12 (configuration not stated)
### Response false (0)

### Prompt What is the recorded call for this compound in the test? Cc1cccc(-c2[nH]ncc2-c2ccc3ncccc3n2)n1
### Response false (0)

### Prompt What is the recorded call for this compound in the test? COc1cc(OC)c(C(=O)CCCN2CCCC2)c(OC)c1
### Response false (0)

### Prompt What is the recorded call for this compound in the test? Cc1nc(Nc2ncc(C(=O)Nc3c(C)cccc3Cl)s2)cc(N2CCN(CCO)CC2)n1
### Response true (1)

### Prompt What is the recorded call for this compound in the test? CC(C)CC(=O)N[C@H](C(=O)N[C@H](C(=O)N[C@@H](CC(C)C)[C@@H](O)CC(=O)N[C@@H](C)C(=O)N[C@@H](CC(C)C)[C@@H](O)CC(=O)O)C(C)C)C(C)C (Isovaleryl-VV[Sta]A[Sta]-OH)
### Response false (0)
